Measured values drawn from ChEMBL document CHEMBL3112519 for this set.

molecular target: Ubiquitin carboxyl-terminal hydrolase 9X (Homo sapiens); assay: Inhibition of human recombinant N-terminal His6-Smt3-fusion-tagged Usp9x catalytic domain expressed in Escherichia coli using Ub-AMC as substrate incubated for 30 mins prior to substrate addition by fluorescence assay
Sequence (Q93008 whole entry, the tested form may be a part): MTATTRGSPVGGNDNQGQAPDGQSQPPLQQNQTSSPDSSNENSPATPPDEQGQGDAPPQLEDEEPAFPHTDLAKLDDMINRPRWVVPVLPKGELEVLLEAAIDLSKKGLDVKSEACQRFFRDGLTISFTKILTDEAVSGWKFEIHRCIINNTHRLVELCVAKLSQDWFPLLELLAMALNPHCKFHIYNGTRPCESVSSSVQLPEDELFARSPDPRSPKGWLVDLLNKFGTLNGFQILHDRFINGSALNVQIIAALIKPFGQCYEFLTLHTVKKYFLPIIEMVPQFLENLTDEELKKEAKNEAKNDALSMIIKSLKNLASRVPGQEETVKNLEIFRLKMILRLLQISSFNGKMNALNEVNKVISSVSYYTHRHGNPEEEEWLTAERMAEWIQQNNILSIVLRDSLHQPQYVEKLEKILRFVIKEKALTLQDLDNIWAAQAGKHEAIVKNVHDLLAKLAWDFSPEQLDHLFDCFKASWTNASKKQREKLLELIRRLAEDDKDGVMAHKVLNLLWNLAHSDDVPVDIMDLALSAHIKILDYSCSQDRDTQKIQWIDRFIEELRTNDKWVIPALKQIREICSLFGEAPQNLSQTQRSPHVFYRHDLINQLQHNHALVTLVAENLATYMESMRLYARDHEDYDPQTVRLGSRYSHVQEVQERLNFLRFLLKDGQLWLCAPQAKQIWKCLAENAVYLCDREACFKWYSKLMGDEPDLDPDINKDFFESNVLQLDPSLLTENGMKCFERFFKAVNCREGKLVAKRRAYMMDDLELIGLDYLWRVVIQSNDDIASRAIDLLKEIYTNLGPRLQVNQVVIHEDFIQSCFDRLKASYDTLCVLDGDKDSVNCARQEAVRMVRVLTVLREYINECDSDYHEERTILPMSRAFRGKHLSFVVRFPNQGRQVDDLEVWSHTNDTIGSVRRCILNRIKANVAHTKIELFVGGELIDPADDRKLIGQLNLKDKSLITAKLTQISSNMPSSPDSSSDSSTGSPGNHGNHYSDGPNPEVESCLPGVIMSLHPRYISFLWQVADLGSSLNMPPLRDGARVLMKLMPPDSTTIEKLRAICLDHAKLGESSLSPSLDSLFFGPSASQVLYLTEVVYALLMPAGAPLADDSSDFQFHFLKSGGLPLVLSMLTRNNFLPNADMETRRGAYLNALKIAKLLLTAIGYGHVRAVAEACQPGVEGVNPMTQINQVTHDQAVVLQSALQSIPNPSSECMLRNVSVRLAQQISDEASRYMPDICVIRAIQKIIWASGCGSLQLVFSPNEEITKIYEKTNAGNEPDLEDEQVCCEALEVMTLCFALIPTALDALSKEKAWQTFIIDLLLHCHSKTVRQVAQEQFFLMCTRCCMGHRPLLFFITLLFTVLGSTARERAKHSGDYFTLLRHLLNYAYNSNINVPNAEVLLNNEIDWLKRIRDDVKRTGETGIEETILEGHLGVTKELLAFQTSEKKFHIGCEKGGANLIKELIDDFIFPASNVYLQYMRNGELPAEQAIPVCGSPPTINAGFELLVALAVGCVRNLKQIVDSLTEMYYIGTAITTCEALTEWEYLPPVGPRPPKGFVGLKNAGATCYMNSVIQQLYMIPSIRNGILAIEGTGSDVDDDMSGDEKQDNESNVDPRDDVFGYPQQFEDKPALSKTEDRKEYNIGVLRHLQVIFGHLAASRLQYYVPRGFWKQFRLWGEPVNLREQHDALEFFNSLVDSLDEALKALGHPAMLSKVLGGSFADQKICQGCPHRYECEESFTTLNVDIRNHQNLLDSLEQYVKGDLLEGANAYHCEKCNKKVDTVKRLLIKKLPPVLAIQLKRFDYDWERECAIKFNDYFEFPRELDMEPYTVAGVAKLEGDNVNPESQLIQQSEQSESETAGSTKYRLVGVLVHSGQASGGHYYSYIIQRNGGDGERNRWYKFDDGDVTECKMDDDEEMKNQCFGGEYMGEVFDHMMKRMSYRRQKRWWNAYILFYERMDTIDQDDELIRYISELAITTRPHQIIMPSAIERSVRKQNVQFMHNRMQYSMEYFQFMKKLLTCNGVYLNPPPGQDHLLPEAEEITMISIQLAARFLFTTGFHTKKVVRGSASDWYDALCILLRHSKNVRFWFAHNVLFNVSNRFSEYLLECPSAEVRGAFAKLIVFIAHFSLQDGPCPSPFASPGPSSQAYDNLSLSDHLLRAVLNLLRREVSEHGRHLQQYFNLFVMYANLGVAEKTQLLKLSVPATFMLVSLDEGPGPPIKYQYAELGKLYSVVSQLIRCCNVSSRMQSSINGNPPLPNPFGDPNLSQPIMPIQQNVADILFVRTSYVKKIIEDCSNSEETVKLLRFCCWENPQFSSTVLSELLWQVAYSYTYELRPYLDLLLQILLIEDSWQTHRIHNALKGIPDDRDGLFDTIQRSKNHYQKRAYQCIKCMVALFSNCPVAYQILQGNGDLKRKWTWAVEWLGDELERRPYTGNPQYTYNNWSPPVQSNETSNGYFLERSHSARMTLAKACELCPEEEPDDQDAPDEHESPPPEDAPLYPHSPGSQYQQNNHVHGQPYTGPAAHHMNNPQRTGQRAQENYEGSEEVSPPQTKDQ
VALUE KIND: IC50
# include the unit after the value

Query: Request the reported IC50 associated with "CCC[C@H](NC(=O)/C(C#N)=C/c1cccc(Br)n1)c1ccccc1"
Response: 5.9 µM

---

Kindly state IC50 for each of the entries shown.
test system: K562; assay: Cytotoxicity against human K562 cells after 72 hrs by MTT assay; type: functional, cell-based; settings: K562, 72 h
// units = nM; emit number, no label

Query: Entry "CCC[C@H](NC(=O)/C(C#N)=C/c1cccc(Br)n1)c1ccccc1" has what IC50?
Response: 2400

Query: Recorded IC50 of "C[C@H](NC(=O)/C(C#N)=C/c1cccc(/C=C(\C#N)C(=O)N[C@@H](C)c2ccccc2)c1)c1ccccc1" , please.
Response: 600

Query: Give its IC50 value. Item: "N#C/C(=C/c1cccc(Br)n1)C(=O)NCc1cccc(CNC(=O)/C(C#N)=C\c2cccc(Br)n2)c1"
Response: 400
